Details: Day 16; G10-G16 groups; single IP 400 mg/kg; Mean±SEM
Procedure: To determine the growth inhibition effect and toxicity of the cytidine derivative samples of the present invention on the transplanted tumor of nude mice bearing colon cancer HCT-116. […] All clinical symptoms of each animal should be recorded at the beginning of the test and during the test. […] The data were expressed as Mean±SEM unless specially provided; Non-pairing T test was performed for the data between the two groups. […]
observable: Weight change rate, Day 16 (%)

- compound: "O=C(COc1nc(Cl)c(Cl)cc1Cl)OC[C@H]1O[C@@H](n2cc(Br)c(NC(=O)OCc3ccccc3)nc2=O)C(F)(F)C1O (stereo partly drawn)"
  unitAbbreviation: "%"
  recordedMeasurement: "−2.19"
- compound: "CCCCOC(=O)Nc1nc(=O)n([C@@H]2O[C@H](COC(=O)Cn3cnc([N+](=O)[O-])c3)C(O)C2(F)F)cc1I (stereo partly drawn)"
  unitAbbreviation: "%"
  recordedMeasurement: 2.56
- compound: "CCCCOC(=O)Nc1nc(=O)n(C2OC(COC(=O)COc3nc(Cl)c(Cl)cc3Cl)C(O)C2(F)F)cc1Br (stereo not drawn)"
  unitAbbreviation: "%"
  recordedMeasurement: 2.61
- compound: "CCCCOC(=O)Nc1nc(=O)n(C2OC(COC(=O)COc3nc(Cl)c(Cl)cc3Cl)C(O)C2(F)F)cc1I (stereo not drawn)"
  unitAbbreviation: "%"
  recordedMeasurement: 0.01
- compound: "CCCCOC(=O)Nc1nc(=O)n(C2OC(COC(=O)COc3nc(Cl)c(Cl)cc3Cl)C(O)C2(F)F)cc1-c1cn(Cc2ccccc2)nn1 (stereo not drawn)"
  unitAbbreviation: "%"
  recordedMeasurement: 11.00
- compound: "O=C(COc1nc(Cl)c(Cl)cc1Cl)OCC1OC(n2cc(-c3cn(Cc4ccccc4)nn3)c(NC(=O)OCc3ccc([N+](=O)[O-])cc3)nc2=O)C(F)(F)C1O (stereo not drawn)"
  unitAbbreviation: "%"
  recordedMeasurement: 3.83
